Test system: S. flexneri Sf9380
Test: Mouse Sereny test (keratoconjunctivitis); further: key: −: no disease; ±: little keratoconjunctivitis; +: mild keratoconjunctivitis; ++: keratoconjunctivitis with some purulence; +++: fully developed keratoconjunctivitis with great purulence
Format: in vivo, BALB/c mice
Details: 48 h, mouse 1; Sf9380 pre-treated at the concentration (I 1 12.5, I 2 25, I 3 and I 4 100 µmol/L)
measured-metric: degree of keratoconjunctival inflammation

> print(dat)
                                smiles.data  meas.value
1  O=C(Nc1ccc(C2(c3cccc(NC(=O)c4cccc5ccccc45)c3)c3ccccc3C(=O)c3ccccc32)cc1)c1ccc2ccccc2c1           −
2  CCOc1ccccc1-c1cc(C(=O)N/N=C/c2ccc(OCc3ccccc3)c(OC)c2)c2ccccc2n1           −
3  O=C(O)c1cc(-c2ccc(-c3ccccc3Cl)o2)nc2ccc3ccccc3c12           +
4  O=C(O)c1ccc(Cl)c(-c2ccc(/C=N/NC(=O)c3ccc(Br)cc3)o2)c1           +
